Each recorded value in this set is attributed to patent US20230339866A1.

Test system: A549 (NSCLC)
Test: Anti-proliferative activity (Cell-Titre luminescence) against A549 non-small cell lung cancer cells
Type: cell-based
Settings: 72 h exposure, Cell-Titre luminescent reagent
value.kind: IC50 (µM)
Entry rule: numbers only, all in µM.

Query block: For the compound `Fc1cccc(Nc2nc(NCCc3c[nH]cn3)c3ccccc3n2)c1` , what IC50 is on record?
Result block: 9.16

---

System: A549 (NSCLC)
Assay: Anti-proliferative activity (Cell-Titre luminescence) against A549 non-small cell lung cancer cells
Assay type: cell-based
Details: Homo sapiens, A549; 72 h exposure, Cell-Titre luminescent reagent
value.kind: IC50
Phrase the answer as number then unit, nothing more needed.

Query block: For the compound `OCCNc1nc(NCc2cccc(C(F)(F)F)c2)nc2ccccc12` , what IC50 is on record?
Result block: 11.1 µM
